- System: erythrocyte suspensions of horse blood;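 note: Read-out is hemoglobin release into the supernatant, with a buffer-only blank subtracted as the 0% baseline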
- ASSAY_SETUP: 250 µM peptide; horse erythrocytes 5% vol/vol, TRIS buffer pH 7.2, 1 h at 37°C, absorbance 540 nm; relative to melittin 100 μM; ± confidence interval (α = 0.05)
Where a SMILES comes first, the peptide text is derived from it. [ ]: non-standard residue; d: D form. The star is where a group is joined. Oleoyl = CCCCCCCC/C=C\CCCCCCCC(=O)*; Lauroyl = CCCCCCCCCCCC(=O)*; Hexanoyl = CCCCCC(=O)*
Please go through the items and note down their Hemolysis (%) 250 µM.
One number for each entry, in %.

Use the examples below as a reference point.
MOLECULE | READOUT_UNIT | Hemolysis (%) 250 µM
CCCCCCCC/C=C\CCCCCCCC(=O)NCCCC[C@@H]1NC(=O)[C@H](CCCCN)NC(=O)[C@H](CC(C)C)NC(=O)[C@H](CCCCN)NC(=O)[C@H](CCCCN)NC(=O)[C@H](CCC(N)=O)NC(=O)[C@H](CC(C)C)NC(=O)[C@H](CCCCN)NC(=O)[C@H](CCCCN)NC(=O)[C@H](Cc2ccccc2)NC1=O [BPC622, c(KKLKK(CO-C17H33)FKKLQ)] (cyclo(FKKLQKKLKK(Oleoyl))) | % | 97
CCCCCC(=O)NCCCC[C@H]1NC(=O)[C@H](CCCCN)NC(=O)[C@H](CC(C)C)NC(=O)[C@H](CCCCN)NC(=O)[C@H](CCCCN)NC(=O)[C@H](CCC(N)=O)NC(=O)[C@H](CC(C)C)NC(=O)[C@H](CCCCN)NC(=O)[C@H](CCCCN)NC(=O)[C@@H](Cc2ccccc2)NC1=O [BPC632, c(KKLKk(CO-nC5H11)fKKLQ)] (cyclo(KKLK[dK](Hexanoyl)[dF]KKLQ)) | % | 22
CCCCCC(=O)NCCCC[C@@H]1NC(=O)[C@H](CCCCN)NC(=O)[C@H](Cc2ccccc2)NC(=O)[C@H](CCCCN)NC(=O)[C@H](CCCCN)NC(=O)[C@H](CC(C)C)NC(=O)[C@H](CCCCN)NC(=O)[C@H](CCCCN)NC(=O)[C@H](CCC(N)=O)NC(=O)[C@H](CC(C)C)NC1=O [BPC582] (cyclo(FKK(Hexanoyl)LQKKLKK)) | % | 96

Entry CCCCCCCCCCCC(=O)NCCCC[C@@H]1NC(=O)[C@H](CCCCN)NC(=O)[C@H](CC(C)C)NC(=O)[C@H](CCCCN)NC(=O)[C@H](CCCCN)NC(=O)[C@H](CCC(N)=O)NC(=O)[C@H](CC(C)C)NC(=O)[C@H](CCCCN)NC(=O)[C@H](CCCCN)NC(=O)[C@H](Cc2ccccc2)NC1=O [BPC530, c(KKLKK(CO-C11H23)FKKLQ)] (cyclo(FKKLQKKLKK(Lauroyl))) has what Hemolysis (%) 250 µM? 91
